These entries and their values trace back to ChEMBL document CHEMBL1201862.

Test: Luminescence Cell-Based Dose Retest to Confirm Inhibitors of Cancer Stem Cells. [Related pubchem assays (depositor defined):AID2717, AID2721];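 also: cells exposed to compound for roughly 70 hours or longer before luminescence read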
Type: functional
Conditions: Homo sapiens
Calls of active or inactive are those of the source. Rule as the data show it: actives have a measured AC50 and inactives only a lower limit.
Listed here: items and their measured AC50.
value kind: AC50

COc1cc(CNC2CCCC2)cc(Cl)c1OCc1ccccc1Cl ... 5.89 µM (active)
CC(C)(C)c1ccc(C(=O)CC(Sc2ccc(Cl)cc2)C(=O)O)cc1 (centres undefined) ... 4.12 µM (active)
Cc1ccc2c(c1)c1ncn(CCC3=CCCCC3)c(=O)c1n2C ... 1 µM (active)
Oc1ccc(-c2csc(Nc3ccccn3)n2)c(O)c1 ... 1.74 µM (active)
